Protocol text: Unbound tissue partition coefficient, ratio of drug level in skeletal muscle to plasma in Wistar Han rat at 1 to 2 mg/kg, iv infused for 10 to 20 hrs by LC-MS/MS analysis
Experimental setup: skeletal muscle/plasma
Category key, based on recorded Kp uu: low: < 0.5; middle: ≥ 0.5 and < 0.8; high: ≥ 0.8

NC(=O)c1c(-c2ccc(Oc3ccc(Cl)cc3)cc2)nn([C@@H]2CCCN(C(=O)/C=C/CO)C2)c1N    high
CS(=O)(=O)c1cccc(C(=O)O)c1    low
COc1ccc(Cc2cc([C@@H]3OC4(COC4)[C@@H](O)[C@H](O)[C@H]3O)ccc2C)cc1    middle

Query block: Could you tell me which band C[C@H]1C[C@H]2CSC(N)=N[C@@]2(c2cc(C#N)ccc2F)CO1 belongs to?
Result block: high

Query block: Exam item: assign C[C@H](c1nc2cnc(N3CCC[C@@H](C(=O)N4CCCC4)C3)nc2[nH]1)n1cc(Cl)cn1 to the correct category.
Result block: middle

Query block: For Cn1cnc(-c2ccc(O[C@H]3CCN(C(=O)Cc4ccc(OC(F)(F)F)cc4)C[C@@H]3F)c(C(N)=O)c2)c1 , which Kp uu bin applies?
Result block: high

Query block: Which Kp uu band matches Cn1nc(C(=O)NCCN2CCOCC2)cc1-c1cc2ccccc2[nH]1 ?
Result block: middle

Query block: Note: place this compound into its band. Item: CCCn1cnc(C[C@H](CCCN)C(=O)O)c1 [UK-396,082]
Result block: high

Query block: Assign a category based on measured Kp uu for CN(C)C[C@@H](OC(=O)N1Cc2c(NC(=O)C3(C(F)(F)F)CC3)n[nH]c2C1(C)C)c1ccccc1 and give only the class name.
Result block: high

---

Protocol text: Fraction unbound in Wistar Han rat skeletal muscle at 2 uM incubated for 6 hrs by equilibrium dialysis method
Could you please mark 1 (yes) for values of fraction unbound at 6 h, 2 µM below 0.1 and 0 (no) for values at or above it?

COc1ccc(-c2cc3c(C(=O)O)n[nH]c3cc2Cl)cc1    1 (yes)
COc1cc2c(cc1Cc1ccccc1)C[C@H](N)C(=O)N2OC(=O)N(C)C    1 (yes)
Cc1c(C(=O)O)cnn1-c1nc(-c2cccc(C(F)(F)F)c2)cs1    1 (yes)
CCC[C@H](Oc1cc(C)c(-n2cc(C(F)(F)F)cn2)c(C)c1)c1ccc(C(=O)NCCC(=O)O)cc1    1 (yes)
O=C(O)c1c[nH]c2cc(Cl)c(-c3ccc(CC(=O)N4CCOCC4)cc3)cc12    0 (no)

Consider now this further compound.
Query block: Decide: fraction unbound at 6 h, 2 µM of CN(C)C[C@@H](OC(=O)N1Cc2c(NC(=O)C3(C(F)(F)F)CC3)n[nH]c2C1(C)C)c1ccccc1 strictly below 0.1?
Result block: 0 (no)

---

# Ct listing for each entry below
Protocol text: Drug concentration in total white adipose tissue in Wistar Han rat at 1 to 2 mg/kg, iv infused for 10 to 20 hrs by LC-MS/MS analysis
Experimental setup: in vivo
Report only the number, with the unit ng/mL understood.

The examples below pair each entry with its known result.
CC(=O)NS(=O)(=O)c1ccc(Oc2ccc(F)c(Cl)c2)c(C(F)(F)F)c1    14
O=C(NC1CCCC1)C1CCN(c2nc3cc(Cl)ccc3o2)CC1    330
COc1ccc(-c2cc3c(C(=O)O)n[nH]c3cc2Cl)cc1    1
CC1(OC(=O)N2CCC(n3ncc(COc4ccc(C(N)=O)cc4F)c3C#N)CC2)CC1    73

# Ct (compound: O=C(NC(c1ccccc1)c1ccccc1)C1CC1 ) is 880

GET /value?item= C[C@H](CN1CCOCC1)n1/c(=N\C(N)=O)[nH]c2cc(/C=C3\c4ccccc4COc4cc(F)ccc43)ccc21 &field=Ct returns 410

Briefly, Ct measured for O=C(O)c1nc2cc(Cl)c(Cl)cc2nc1O : 0.77

Reported Ct for COc1cc2nc(N3CCN(C(=O)c4ccco4)CC3)nc(N)c2cc1OC was 33

Looking up O=C(c1cccc(N2CCNCC2)n1)N1CCC(c2ccccc2F)CC1 , I see its Ct listed as 28

Record CC(C)(CC1Cc2ccccc2C1)NC[C@@H](O)COc1cc(C2CC3CC2C2C(C(=O)O)C32)ccc1C#N (stereo not given in full) , field Ct: 4.7
